Measured values drawn from paper PMC5540273 for this set.

- Test system: GRK4
- MEASUREMENT CONDITIONS: concentration: 1 μM,replicates: in singlicate; n = 1;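 also: KINOMEscan kinase panel screen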
OBSERVATION TYPE: %Inh (%)
Output spec: scalar in %, unitless text.

CNC(=O)c1ccccc1Sc1ccc2c(/C=C/c3ccccn3)n[nH]c2c1 ... 11
C[C@H]1Oc2cc(cnc2N)-c2c(nn(C)c2C#N)CN(C)C(=O)c2ccc(F)cc21 ... 0
Nc1nc(Nc2ccccc2)cc(-c2ccc3c(N)n[nH]c3c2)n1 [GSK2225749] ... 73
CC(C)Nc1cc(-c2ccc3c(N)n[nH]c3c2)nc(N)n1 [GSK2221681] ... 34
CCN(CC)CCOc1ccc(Nc2ncc3cc(-c4c(Cl)cccc4Cl)c(=O)n(C)c3n2)cc1 [SB-601273] ... 0
Cl.Cl.NC[C@H](Cc1ccc(C(F)(F)F)cc1)NC(=O)c1cc(Br)c(-c2ccnc3[nH]ccc23)s1 [GSK1487252] ... 8
CN(C)CC(O)COc1ccc(Nc2nccc(-c3cnn4nc(N5CCOCC5)ccc34)n2)cc1 (centres unmarked) [GW767488] ... 81

Now consider a different molecule.
// assay GRK4, entry `Cc1cc2cn[nH]c2cc1-c1cccc2c(N)c(C(N)=O)nnc12` , %Inh value = 28

* * *

Reported %Inh values are given for each entry in this list.
- System: PKN2
- MEASUREMENT CONDITIONS: concentration: 1 μM,replicates: in singlicate; n = 1
Give the value, in units of %, as a plain number.

Worked cases, answers included:
Cc1cc2cn[nH]c2cc1-c1cccc2c(N)c(C(N)=O)nnc12 ... 0
CC(C)N1C(=O)Cc2cc(Nc3ncc(C(F)(F)F)c(NCc4cccc(S(C)(=O)=O)c4)n3)ccc21 ... 7

Please fill in: %Inh reported for `O=C(NCCCN1CCOC1=O)c1cnc(NCc2cc(Cl)ccc2Cl)nc1NC1CCCC1` = 10

* * *

Recorded measurements of %Inh, one per entry
- System: PIP5K2C
- Construct: gene PIP4K2C
- MEASUREMENT CONDITIONS: concentration: 1 μM,replicates: in singlicate; n = 1
# unit: % | format: bare number

CC(C)N1C(=O)Cc2cc(Nc3ncc(C(F)(F)F)c(NCc4cccc(S(C)(=O)=O)c4)n3)ccc21 ... 52
Cc1occc1-c1nc(N)c(OC[C@@H](N)Cc2c[nH]c3ccccc23)cc1-c1cc2c(C)n[nH]c2cn1 ... 0
CN(C)CC(O)COc1ccc(Nc2nccc(-c3cnn4nc(N5CCOCC5)ccc34)n2)cc1 (stereo not shown) ... 82

Switching to the query record.
Record `Cl.Oc1cc(-c2nc(-c3ccccc3)[nH]c2-c2ccncc2)ccc1Cl` , field %Inh: 0

* * *

Known %Inh of a selection of compounds
- Test system: PCTK3
- Construct: gene CDK18
- MEASUREMENT CONDITIONS: concentration: 1 μM,replicates: in singlicate; n = 1
# value in %; strip the unit string

Illustrative cases are given below, each with its answer.
Cc1cc(C(=O)Nc2ccc(Oc3ccc4nc(NC(=O)C5CC5)cn4n3)cc2)nn1-c1ccccc1 ... 4
Cl.Cl.NC[C@H](CC1CCCCC1)NC(=O)c1cc(Br)c(-c2ccnc3[nH]ccc23)s1 ... 0
Cc1occc1-c1nc(N)c(OC[C@@H](N)Cc2c[nH]c3ccccc23)cc1-c1cc2c(C)n[nH]c2cn1 ... 0
Cc1cc2cn[nH]c2cc1-c1cccc2c(N)c(C(N)=O)nnc12 ... 26
CCN(CC)CCOc1ccc(Nc2ncc3cc(-c4c(Cl)cccc4Cl)c(=O)n(C)c3n2)cc1 ... 0
Cl.Cl.Nc1nc(-c2ccc3c(N)n[nH]c3c2)cc(N2CCCC(NC(=O)c3ccccc3)C2)n1 (centres unmarked) ... 11

// returns %Inh for `CN(C)CCOc1ccc(-c2cc(-c3c[nH]nc3-c3ccccn3)ccn2)cc1` with PCTK3; value = 2

Item `Cl.Oc1cc(-c2nc(-c3ccccc3)[nH]c2-c2ccncc2)ccc1Cl` ; assay system PCTK3; %Inh reported as 0

* * *

- Test system: GRK7
- MEASUREMENT CONDITIONS: concentration: 1 μM,replicates: in singlicate; n = 1
OBSERVATION TYPE: %Inh (%)
Numeric only. Scale: %

NC(=O)c1cc(-c2ccccc2)cc2c(C3CCNCC3)c[nH]c12 ... 0
C[C@H]1Oc2cc(cnc2N)-c2c(nn(C)c2C#N)CN(C)C(=O)c2ccc(F)cc21 ... 94.3

Moving on to another molecule below.
Lookup result for `Cc1occc1-c1nc(N)c(OC[C@@H](N)Cc2c[nH]c3ccccc23)cc1-c1cc2c(C)n[nH]c2cn1` ; measured %Inh: 87

* * *

# %Inh per record follows
- Test system: MST3
- Construct: gene STK24
- MEASUREMENT CONDITIONS: concentration: 1 μM,replicates: in singlicate; n = 1
Please give a number only; it is taken to be in %.

CCn1c(-c2nonc2N)nc2c(C#CC(C)(C)O)nc(OCCN)cc21.Cl.Cl [GSK902056] ... 0
Cl.Oc1cc(-c2nc(-c3ccccc3)[nH]c2-c2ccncc2)ccc1Cl [SB-386023] ... 0
NC(=O)c1cc(-c2ccccc2)cc2c(C3CCNCC3)c[nH]c12 [GSK301362] ... 0

According to the records, this compound `CCN(CC)CCCCNc1ncc2cc(-c3c(Cl)cccc3Cl)c(NC(=O)NC(C)(C)C)nc2n1` displays %Inh of 74

Noted for Cl.Cl.NC[C@H](CC1CCCCC1)NC(=O)c1cc(Br)c(-c2ccnc3[nH]ccc23)s1 [GSK1581427] : its %Inh reads 0

response.value for Cl.Cl.Nc1nc(-c2ccc3c(N)n[nH]c3c2)cc(N2CCCC(NC(=O)c3ccccc3)C2)n1 (centres unmarked) [GSK2286775] (field: %Inh) = 12

Consider CCN(CC)CCOc1ccc(Nc2ncc3cc(-c4c(Cl)cccc4Cl)c(=O)n(C)c3n2)cc1 [SB-601273] . Its measured %Inh is 80

# %Inh (compound: `Cc1cc2cn[nH]c2cc1-c1cccc2c(N)c(C(N)=O)nnc12` ) is 11

* * *

- Test system: PDGFRB
- MEASUREMENT CONDITIONS: concentration: 1 μM,replicates: in singlicate; n = 1
OBSERVATION TYPE: %Inh (%)
State the answer as a number, implicitly in %.

Cc1occc1-c1nc(N)c(OC[C@@H](N)Cc2c[nH]c3ccccc23)cc1-c1cc2c(C)n[nH]c2cn1 ... 49
CC(C)Nc1cc(-c2ccc3c(N)n[nH]c3c2)nc(N)n1 ... 5
CC(C)N1C(=O)Cc2cc(Nc3ncc(C(F)(F)F)c(NCc4cccc(S(C)(=O)=O)c4)n3)ccc21 ... 71
C[C@@H](Oc1cc(-c2cnn(C3CCNCC3)c2)cnc1N)c1c(Cl)ccc(F)c1Cl ... 0
NC(=O)c1cc(-c2ccccc2)cc2c(C3CCNCC3)c[nH]c12 ... 67

Now let's try a different one.
Fill in: PDGFRB %Inh for `Cc1cc(C(=O)Nc2ccc(Oc3ccc4nc(NC(=O)C5CC5)cn4n3)cc2)nn1-c1ccccc1` = 100

* * *

- Test system: CDK9
- MEASUREMENT CONDITIONS: concentration: 1 μM,replicates: in singlicate; n = 1
Reported %Inh values for the following molecules.
Numbers only; they are read as %.

CN(C)CC(O)COc1ccc(Nc2nccc(-c3cnn4nc(N5CCOCC5)ccc34)n2)cc1 (stereo not drawn) ... 49
C=CC(=O)Nc1cc2c(Nc3ccc(F)c(Cl)c3)ncnc2cc1OCCCN1CCOCC1 ... 0
Cc1cc2cn[nH]c2cc1-c1cccc2c(N)c(C(N)=O)nnc12 ... 5
CC(C)Nc1cc(-c2ccc3c(N)n[nH]c3c2)nc(N)n1 ... 0
CNC(=O)c1ccccc1Sc1ccc2c(/C=C/c3ccccn3)n[nH]c2c1 ... 0

Field %Inh (entry `C[C@@H]1CCN(C(=O)CC#N)C[C@@H]1N(C)c1ncnc2[nH]ccc12` ) reads 0

Briefly, %Inh measured for `Nc1nc(Nc2ccccc2)cc(-c2ccc3c(N)n[nH]c3c2)n1` : 0

Summary for this molecule, `C[C@H]1Oc2cc(cnc2N)-c2c(nn(C)c2C#N)CN(C)C(=O)c2ccc(F)cc21` : %Inh is 1

Input `Cc1ccc2c(-c3ccncc3)c(-c3ccc(F)cc3)nn2c1.Cl` . Output %Inh: 0

Looking up `C[C@@H](Oc1cc(-c2cnn(C3CCNCC3)c2)cnc1N)c1c(Cl)ccc(F)c1Cl` , I found its %Inh recorded as 12

Kindly note the recorded %Inh for `O=C(NCCCN1CCOC1=O)c1cnc(NCc2cc(Cl)ccc2Cl)nc1NC1CCCC1` , which is 5

Query `CCn1c(-c2nonc2N)nc2c(C#CC(C)(C)O)nc(OCCN)cc21.Cl.Cl` yields %Inh of 0
